Assay: log P (octanol/water partition coefficient) by HPLC method of Leahy, Taylor and Wait
Type: physicochemical
Conditions: octanol in conjunction with water
readout: chromatographic logP
Numbers only.

These solved cases illustrate the format of a correct answer.
CCCCCCCC(=O)C1=CN(C(C)(C)C)CCC1(C)C :: 5.8
CC(=O)C1=CN(CC(C)C)CCC1(C)C :: 2.7
CCCCCCCCCC(=O)C1=CN(CC)CCC1(C)C :: 5.8
CCCCCCCCCC(=O)C1=CN(CCC)CCC1(C)C :: 6.3
CCCCCCCCCCN1C=C(C(=O)CC)C(C)(C)CC1 :: 6.3

Respectfully, I request chromatographic logP for each entry included below.
1. CCCCCCCCCCCCCCCC(=O)C1=CN(CC)CCC1(C)C
2. CC(C)CN1C=C(C(=O)C(F)(F)F)C(C)(C)CC1
3. CCCCCCCC(=O)C1=CN(CC)CCC1(C)C
4. CCCCCCCCCCCCCC(=O)C1=CN(C)CCC1(C)C

1: 8.9; 2: 3; 3: 4.8; 4: 7.4

I would be grateful if you could share the reported chromatographic logP for CCCCC(CC)COC(=O)CCC(=O)C1=CN(CC)CCC1(C)C (stereo not shown) .
6.9
